Where these numbers come from: ChEMBL document CHEMBL1121396

# Protocol Notes: Tested for effect to cause relaxation of bovine coronary artery
# Assay type: functional, tissue-based, Bos taurus
Recorded Endpoint: EC50 (nM)

(A) CCCCC[C@H](O)C#CC1C2C/C(=C\CCCC(=O)O)OC2C(F)(F)C1O (some centres not stated)
(B) CCCCC[C@H](O)/C=C/[C@@H]1[C@H]2C/C(=C/CCCC(=O)O)O[C@H]2C[C@H]1O [EPOPROSTENOL]
Problem: Consider A and B . Which of these has its EC50 at a higher number? Answer with the label corresponding to your selection.
Solution: B
